# Tested on: Human papillomavirus type 1a protein E7 (residues 44-93)
# protocol-text: HPV1a E7 fragment binders on microarrays, primary screen, biochemical, small-molecule microarray, residues 44-93, 635 nm fluorescence (AID 1108);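 also: E7 fragment applied at 1 µg/mL in TBST for 1 h at 4 C; score combines spot fluorescence with its signal to noise ratio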
# experimental-parameters: small-molecule microarray binding, fluorescence 635 nm; higher = more signal
Let's look at some compounds and their measured composite z-score.
Answer as a number with no unit attached.

// solved cases for composite z-score follow
compound	reading
CN1C(=O)C2C=CC(C(O)C#Cc3ccccc3)N(N3CCCCC3)C2C1=O (centres undefined)	-1.16
CN1C(=O)C2C=CC(C(O)c3ccco3)N(Nc3ccccc3)C2C1=O (centres undefined)	0.282
C=CCC(OC(C)=O)[C@@H]1[C@@H](N(Cc2ccc(-c3ccccc3)cc2)C(=O)Cc2ccc(OC)cc2)c2cc(OCCCO)ccc2N1C(=O)Cc1ccc2ccccc2c1 (some centres undefined)	-0.285

# input for lookup
GET /values?readout=composite z-score&item= C=CCC(OC(C)=O)[C@@H]1[C@@H](N(Cc2cc3ccccc3o2)C(=O)c2cccc3ccccc23)c2cc(OCCCO)ccc2N1C(=O)c1ccc(-c2ccccc2)cc1 (some centres undefined)
-0.0367
